target: Dipeptidase 1 (Homo sapiens); assay: Compound stability against human renal DHP-1 relative to imipenem (IMP); type: functional
Property: Stability; scope: individual compounds

COMPOUND	READING UNIT	Stability
C/C(=C\[C@@]1(C)CCCN1)C1=C(C(=O)O)N2C(=O)[C@H]([C@@H](C)O)[C@H]2C1	%	45
C[C@@H](O)[C@H]1C(=O)N2C(C(=O)O)=C(C3CCNC3)C[C@H]12 (some centres undefined)	%	58
C[C@@H](O)[C@H]1C(=O)N2C(C(=O)O)=C([C@@H]3CCN(C=N)C3)C[C@H]12	%	39
C[C@@H](O)[C@H]1C(=O)N2C(C(=O)O)=C([C@@H]3CCN(C4=NCCC4)C3)C[C@H]12	%	28

====

system: Escherichia coli; test: In vitro antibacterial activity against Escherichia coli NIHJ JC-2.; assay type: functional
READOUT KIND: MIC

COMPOUND	VALUE OBSERVED
CC(=N)N1CC[C@H](SC2=C(C(=O)O)N3C(=O)[C@H]([C@@H](C)O)[C@H]3C2)C1	0.2 µg/mL
C[C@@H](O)[C@H]1C(=O)N2C(C(=O)O)=C([C@@H]3CCN(C4=NCCC4)C3)C[C@H]12	0.2 µg/mL
C[C@@H](O)[C@H]1C(=O)N2C(C(=O)O)=C([C@@H]3CCN(C=N)C3)C[C@H]12	0.1 µg/mL
C[C@@H](O)[C@H]1C(=O)N2C(C(=O)O)=C([C@@H]3CCN(C(=N)COC(N)=O)C3)C[C@H]12	0.1 µg/mL
C[C@@H](O)[C@H]1C(=O)N2C(C(=O)O)=C([C@@H]3CCN(C(=N)CC(N)=O)C3)C[C@H]12	0.39 µg/mL
C[C@@H](O)[C@H]1C(=O)N2C(C(=O)O)=C([C@H]3CCNC3)C[C@H]12	0.39 µg/mL
CC(=N)N1CC[C@@H](C2=C(C(=O)O)N3C(=O)[C@H]([C@@H](C)O)[C@H]3C2)C1	0.2 µg/mL
C[C@@H](O)[C@H]1C(=O)N2C(C(=O)O)=C([C@@H]3CCN(C(=N)CO)C3)C[C@H]12	0.39 µg/mL
C[C@@H](O)[C@H]1C(=O)N2C(C(=O)O)=C(C3CCNC3)C[C@H]12 (some centres undefined)	0.39 µg/mL

====

assay: Tested for urinary recovery in mice after subcutaneous administration of 20 mg/Kg; format: ADME, organism-based; settings: mouse, urine, sc, read-out: Recovery
READOUT KIND: dose excreted (%)

MOLECULE	READOUT KIND	VALUE OBSERVED
C[C@@H](O)[C@H]1C(=O)N2C(C(=O)O)=C(C3CCNCC3)C[C@H]12	dose excreted	43
C/N=C/N1CC[C@@H](C2=C(C(=O)O)N3C(=O)[C@H]([C@@H](C)O)[C@H]3C2)C1	dose excreted	48
C[C@@H](O)[C@H]1C(=O)N2C(C(=O)O)=C([C@@H]3CCN(C(=N)COC(N)=O)C3)C[C@H]12	dose excreted	42
C[C@@H](O)[C@H]1C(=O)N2C(C(=O)O)=C([C@@H]3CCNC3)C[C@H]12	dose excreted	37
C[C@@H](O)[C@H]1C(=O)N2C(C(=O)O)=C(C3CCCNC3)C[C@H]12 (some centres not stated)	dose excreted	59
C[C@@H](O)[C@H]1C(=O)N2C(C(=O)O)=C([C@@H]3CCN(C(=N)CO)C3)C[C@H]12	dose excreted	52
C[C@@H](O)[C@H]1C(=O)N2C(C(=O)O)=C(SCCN=CN)C[C@H]12 [IMIPENEM ANHYDROUS]	dose excreted	29
C[C@@H](O)[C@H]1C(=O)N2C(C(=O)O)=C(C3CCNC3)C[C@H]12 (some centres not stated)	dose excreted	42
C[C@@H](O)[C@H]1C(=O)N2C(C(=O)O)=C(C3CNC3)C[C@H]12	dose excreted	45
C[C@@H](O)[C@H]1C(=O)N2C(C(=O)O)=C([C@@H]3CCN(C=N)C3)C[C@H]12	dose excreted	41
C[C@@H](O)[C@H]1C(=O)N2C(C(=O)O)=C([C@@H]3CCN(C(=N)CC(N)=O)C3)C[C@H]12	dose excreted	43
C/C(=C\[C@@]1(C)CCCN1)C1=C(C(=O)O)N2C(=O)[C@H]([C@@H](C)O)[C@H]2C1	dose excreted	61
C[C@@H](O)[C@H]1C(=O)N2C(C(=O)O)=C([C@@H]3CCN(C(=N)CNC(N)=O)C3)C[C@H]12	dose excreted	47
C[C@@H](O)[C@H]1C(=O)N2C(C(=O)O)=C([C@H]3CCNC3)C[C@H]12	dose excreted	46
CC(=N)N1CC[C@@H](C2=C(C(=O)O)N3C(=O)[C@H]([C@@H](C)O)[C@H]3C2)C1	dose excreted	44
CC(=N)N1CC[C@H](SC2=C(C(=O)O)N3C(=O)[C@H]([C@@H](C)O)[C@H]3C2)C1	dose excreted	25
C[C@@H](O)[C@H]1C(=O)N2C(C(=O)O)=C([C@@H]3CCN(C4=NCCC4)C3)C[C@H]12	dose excreted	50

====

The following compounds are shown together with reported log10 of MIC values.
test system: Staphylococcus aureus; assay: In vitro antibacterial activity against Staphylococcus aureus 3004 Methicillin-resistant Staphylococcus aureus.; format: functional
READOUT KIND: log10 of MIC (log10 of the value in µg/mL)

COMPOUND	log10 of MIC
C[C@@H](O)[C@H]1C(=O)N2C(C(=O)O)=C([C@@H]3CCN(C(=N)CO)C3)C[C@H]12	1.40
C[C@@H](O)[C@H]1C(=O)N2C(C(=O)O)=C(C3CCCNC3)C[C@H]12 (some centres not stated)	1.70
C/C(=C\[C@@]1(C)CCCN1)C1=C(C(=O)O)N2C(=O)[C@H]([C@@H](C)O)[C@H]2C1	1.70
CC(=N)N1CC[C@H](SC2=C(C(=O)O)N3C(=O)[C@H]([C@@H](C)O)[C@H]3C2)C1 [PANIPENEM]	1.70
C[C@@H](O)[C@H]1C(=O)N2C(C(=O)O)=C([C@@H]3CCN(C4=NCCC4)C3)C[C@H]12	1.10
C[C@@H](O)[C@H]1C(=O)N2C(C(=O)O)=C([C@@H]3CCN(C=N)C3)C[C@H]12	1.40
C[C@@H](O)[C@H]1C(=O)N2C(C(=O)O)=C([C@@H]3CCN(C(=N)CNC(N)=O)C3)C[C@H]12	1.40
C[C@@H](O)[C@H]1C(=O)N2C(C(=O)O)=C(SCCNC=N)C[C@H]12 [IMIPENEM ANHYDROUS]	2.00
C[C@@H](O)[C@H]1C(=O)N2C(C(=O)O)=C([C@@H]3CCN(C(=N)CC(N)=O)C3)C[C@H]12	0.80
C[C@@H](O)[C@H]1C(=O)N2C(C(=O)O)=C(C3CCNC3)C[C@H]12 (some centres not stated)	2.00
C[C@@H](O)[C@H]1C(=O)N2C(C(=O)O)=C([C@@H]3CCNC3)C[C@H]12	1.70
C[C@@H](O)[C@H]1C(=O)N2C(C(=O)O)=C([C@@H]3CCN(C(=N)COC(N)=O)C3)C[C@H]12	0.80
C/N=C/N1CC[C@@H](C2=C(C(=O)O)N3C(=O)[C@H]([C@@H](C)O)[C@H]3C2)C1	0.50
C[C@@H](O)[C@H]1C(=O)N2C(C(=O)O)=C([C@H]3CCNC3)C[C@H]12	2.00
C[C@@H](O)[C@H]1C(=O)N2C(C(=O)O)=C(C3CNC3)C[C@H]12	2.00
CC(=N)N1CC[C@@H](C2=C(C(=O)O)N3C(=O)[C@H]([C@@H](C)O)[C@H]3C2)C1	0.80

====

molecular target: Dipeptidase 1 (Homo sapiens) (UniProt P16444); test: Compound stability against human renal DHP-1 relative to imipenem (IMP); format: functional

SMILES INPUT	READING UNIT	Stability
C/N=C/N1CC[C@@H](C2=C(C(=O)O)N3C(=O)[C@H]([C@@H](C)O)[C@H]3C2)C1	%	91
C[C@@H](O)[C@H]1C(=O)N2C(C(=O)O)=C([C@@H]3CCN(C(=N)CNC(N)=O)C3)C[C@H]12	%	20
C[C@@H](O)[C@H]1C(=O)N2C(C(=O)O)=C([C@H]3CCNC3)C[C@H]12	%	78
C[C@@H](O)[C@H]1C(=O)N2C(C(=O)O)=C([C@@H]3CCN(C(=N)COC(N)=O)C3)C[C@H]12	%	13

====

Reported Stability values are given for each entry in this list.
Target: Dipeptidase 1 (Homo sapiens)
Sequence (whole entry): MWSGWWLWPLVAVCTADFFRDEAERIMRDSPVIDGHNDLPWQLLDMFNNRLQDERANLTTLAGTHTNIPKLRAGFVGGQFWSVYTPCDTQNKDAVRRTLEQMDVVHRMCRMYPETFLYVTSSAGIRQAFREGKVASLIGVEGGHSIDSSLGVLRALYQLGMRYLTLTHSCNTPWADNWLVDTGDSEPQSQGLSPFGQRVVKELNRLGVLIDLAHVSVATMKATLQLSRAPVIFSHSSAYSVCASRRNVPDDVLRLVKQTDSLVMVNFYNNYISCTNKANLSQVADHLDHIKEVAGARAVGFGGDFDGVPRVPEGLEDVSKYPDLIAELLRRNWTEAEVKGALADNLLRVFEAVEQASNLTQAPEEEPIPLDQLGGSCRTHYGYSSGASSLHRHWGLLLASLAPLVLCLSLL
Assay: Compound stability against human renal DHP-1 relative to imipenem (IMP)
Format: functional
READOUT KIND: Stability

COMPOUND	READOUT KIND	VALUE OBSERVED
C[C@@H](O)[C@H]1C(=O)N2C(C(=O)O)=C([C@@H]3CCN(C(=N)CC(N)=O)C3)C[C@H]12	Stability	14%
C[C@@H](O)[C@H]1C(=O)N2C(C(=O)O)=C(SCCNC=N)C[C@H]12 [IMIPENEM ANHYDROUS]	Stability	100%
CC(=N)N1CC[C@@H](C2=C(C(=O)O)N3C(=O)[C@H]([C@@H](C)O)[C@H]3C2)C1	Stability	34%
C[C@@H](O)[C@H]1C(=O)N2C(C(=O)O)=C([C@@H]3CCNC3)C[C@H]12	Stability	48%
